Source: ChEMBL document CHEMBL4689842

tested on: HEK-293T; assay: Multiplex assay against HEK293T; assay type: toxicity, cell-based; conditions: human, 24 h, 10 µM, compound concentration 10 uM, replicate 1
Classes (Population Mitotic Cells (%)): lower (below 30%), middle (30% to below 50%), upper (50% or more)

- COMPOUND: "N#Cc1cccc(C(=O)Nc2cc(-c3ccccc3)nn2-c2ccccc2)c1"
  TARGET_SYSTEM: "HEK-293T"
  CAT: "middle"
- COMPOUND: "CC(C)[C@H](CO)Nc1nc(Nc2cccc(Cl)c2)c2ncn(C(C)C)c2n1 [PURVALANOLA]"
  TARGET_SYSTEM: "HEK-293T"
  CAT: "lower"
- COMPOUND: "C[C@@H](Oc1cc(-n2cnc3ccc(CN4CCN(C)CC4)cc32)sc1C(N)=O)c1ccccc1C(F)(F)F [GSK-461364]"
  TARGET_SYSTEM: "HEK-293T"
  CAT: "lower"
- COMPOUND: "CC(C)c1cc(Nc2nc(N3CCC[C@H](N)C3)ncc2C(N)=O)cc(C(C)C)n1"
  TARGET_SYSTEM: "HEK-293T"
  CAT: "lower"
- COMPOUND: "Cc1ccc(S(=O)(=O)NC2c3ccccc3Oc3ccccc32)cc1"
  TARGET_SYSTEM: "HEK-293T"
  CAT: "middle"
- COMPOUND: "CCOc1ccn(-c2ccc(F)cc2)c(=O)c1C(=O)Nc1ccc(Oc2ccnc(N)c2Cl)c(F)c1 [BMS-777607]"
  TARGET_SYSTEM: "HEK-293T"
  CAT: "upper"
- COMPOUND: "Cc1c(Nc2ccc(S(=O)(=O)N3CCN(C)CC3)cc2F)nc2ccc(Nc3cnn(C4CC4)c3)cn2c1=O"
  TARGET_SYSTEM: "HEK-293T"
  CAT: "upper"
- COMPOUND: "CC[C@@H]1C(=O)N(C)c2cnc(Nc3ccc(C(=O)NC4CCN(C)CC4)cc3OC)nc2N1C1CCCC1 [BI-2536]"
  TARGET_SYSTEM: "HEK-293T"
  CAT: "upper"

* * *

system: U2OS; test: Multiplex assay against U2OS; type: toxicity, cell-based; conditions: human, 12 h, 1 µM, compound concentration 1 uM, replicate 1

- MOLECULE: "CN1C(=O)[C@@H](NC(=O)c2cc3ccccc3[nH]2)N=C(c2ccccc2)c2ccccc21 [DEVAZEPIDE]"
  READING_UNIT: "%"
  Population Healthy Nuclei (%): 76
- MOLECULE: "CCOC(=O)CCNc1cc(N2CCc3ccccc3CC2)nc(-c2ccccn2)n1"
  READING_UNIT: "%"
  Population Healthy Nuclei (%): 85
- MOLECULE: "Cc1c(Nc2ccc(S(=O)(=O)N3CCN(C)CC3)cc2F)nc2ccc(Nc3cnn(C4CC4)c3)cn2c1=O"
  READING_UNIT: "%"
  Population Healthy Nuclei (%): 81
- MOLECULE: "NC(=O)c1ccc2nc(-c3ccc(C4(N)CCC4)cc3)c(-c3ccccc3)n2n1"
  READING_UNIT: "%"
  Population Healthy Nuclei (%): 79

* * *

Listed here: items and their measured Growth Rate.
system: U2OS; test: Incucyte cell viability with U2OS; assay type: toxicity, cell-based; settings: human, 24 h, 10 µM, compound concentration 10 uM, replicate number 1, timepoint 24 hours; further: filed as whole numbers so only -1 and 0 and 1 occur
READOUT: Growth Rate

- COMPOUND: "CC(C)NCC(O)COc1cccc2ccccc12.Cl (centres undefined) [PROPRANOLOL HYDROCHLORIDE]"
  ASSAY_RESULT: 1
- COMPOUND: "O=C1c2ccc(Nc3ccc(F)cc3F)cc2CCc2ccc(OC[C@H](O)CO)cc21 [Skepinone-L]"
  ASSAY_RESULT: 0
- COMPOUND: "CCN(Cc1ccc(Cl)cc1)c1ncc(C(=O)NCCCN2CCCC2=O)c(NC2CCCC2)n1"
  ASSAY_RESULT: 1
- COMPOUND: "C[C@@H](NC(=O)Nc1cc2[nH]ncc2c(CO)n1)c1ccccc1"
  ASSAY_RESULT: 0
- COMPOUND: "CCc1cc(Nc2nccc(-c3c(-c4ccc(OC)c(C(=O)Nc5c(F)cccc5F)c4)nc4ccccn34)n2)c(OC)cc1N1CCC(N2CCN(S(C)(=O)=O)CC2)CC1"
  ASSAY_RESULT: 1
- COMPOUND: "N#Cc1cccc(C(=O)Nc2cc(-c3ccccc3)nn2-c2ccccc2)c1"
  ASSAY_RESULT: 0
- COMPOUND: "COc1cc(C)c(Sc2cnc(NC(=O)c3ccc(CNC(C)C(C)(C)C)cc3)s2)cc1C(=O)N1CCN(C(C)=O)CC1 (centres undefined)"
  ASSAY_RESULT: 0
- COMPOUND: "CC(C)(N)C(=O)N[C@H](COCc1ccccc1)C(=O)N1CCC2(CC1)CN(S(C)(=O)=O)c1ccccc12.CS(=O)(=O)O [IBUTAMOREN MESYLATE]"
  ASSAY_RESULT: 1
- COMPOUND: "C[C@H](NC(=O)Nc1cc2[nH]ncc2c(CO)n1)c1ccccn1"
  ASSAY_RESULT: 0
- COMPOUND: "c1cc(CN2CCCNCCNCCCNCC2)ccc1CN1CCCNCCNCCCNCC1"
  ASSAY_RESULT: 1
- COMPOUND: "COc1ccc2c(c1)O[C@H](c1ccc(OC)c(OC)c1)C[C@@H]2NC(=O)C1(c2ccc3c(c2)OC(F)(F)O3)CC1"
  ASSAY_RESULT: 1
- COMPOUND: "COc1ccc(CCc2nc3cc(-c4c(C)noc4C)ccc3n2C[C@H](C)N2CCOCC2)cc1Cl"
  ASSAY_RESULT: 1
- COMPOUND: "NC(=O)c1ccc2nc(-c3ccc(C4(N)CCC4)cc3)c(-c3ccccc3)n2n1"
  ASSAY_RESULT: 1
- COMPOUND: "CC[C@@H]1C(=O)N(C)c2cnc(Nc3ccc(C(=O)NC4CCN(C)CC4)cc3OC)nc2N1C1CCCC1"
  ASSAY_RESULT: 0
- COMPOUND: "NS(=O)(=O)c1cc(NC(=O)Cc2ccccc2)ccc1Oc1cccc(Cl)c1"
  ASSAY_RESULT: 0
- COMPOUND: "C[C@@H](N)Cc1c[nH]cn1.Cl.Cl"
  ASSAY_RESULT: 0
- COMPOUND: "CN1C(=O)[C@@H](NC(=O)c2cc3ccccc3[nH]2)N=C(c2ccccc2)c2ccccc21 [DEVAZEPIDE]"
  ASSAY_RESULT: 1
- COMPOUND: "CCOC(=O)CCNc1cc(N2CCc3ccccc3CC2)nc(-c2ccccn2)n1"
  ASSAY_RESULT: 0
- COMPOUND: "COc1cc(Nc2ccnc3ccc(Br)cc23)cc(OC)c1OC"
  ASSAY_RESULT: 0
- COMPOUND: "C[C@H]1C[C@H]2[C@@H]3CCC4=CC(=O)C=C[C@]4(C)[C@@]3(Cl)[C@@H](O)C[C@]2(C)[C@@]1(O)C(=O)CO"
  ASSAY_RESULT: 1
- COMPOUND: "CC[C@H](Nc1ncnc2[nH]cnc12)c1nc2cccc(F)c2c(=O)n1-c1ccccc1"
  ASSAY_RESULT: 0
- COMPOUND: "Cc1cc2c(cc1C1(c3ccc(C(=O)O)cn3)CC1)C(C)(C)CCC2(C)C"
  ASSAY_RESULT: 1
- COMPOUND: "c1ccc(-c2oc3ncnc(NC[C@@H]4CCCO4)c3c2-c2ccccc2)cc1"
  ASSAY_RESULT: 0
- COMPOUND: "CCCCN(CC)c1nc(C)nc2c1c(C)cn2-c1c(C)cc(C)cc1C.Cl"
  ASSAY_RESULT: 0
- COMPOUND: "Cc1ccc2[nH]c(CNCCCc3ccncc3)cc(=O)c2c1 [UCSF924NC]"
  ASSAY_RESULT: 0
- COMPOUND: "CNC(=O)Nc1ccc2c(c1)CC[C@@]21OC(=O)N(CC(=O)N(Cc2ccc(F)cc2)[C@@H](C)C(F)(F)F)C1=O"
  ASSAY_RESULT: 1
- COMPOUND: "NC(=O)[C@@H]1CCCN1C(=O)[C@H](Cc1cnc[nH]1)NC(=O)[C@@H]1CCC(=O)N1"
  ASSAY_RESULT: 0
- COMPOUND: "O=C(N1CCS(=O)(=O)CC1)N1C[C@H](c2ccc(OC(F)(F)F)cc2)C[C@H](c2nc(C3CC3)no2)C1"
  ASSAY_RESULT: 0
- COMPOUND: "O=C(NNS(=O)(=O)c1ccccc1)c1cc(-c2ccnnc2)ccc1F"
  ASSAY_RESULT: 1
